Record form. Attribute: GI50. Fill in for each entry.
- System: NCI-H522
- protocol_notes: NCI tumour cell line growth inhibition, 48 h
The source made the active and inactive calls. No stated cut-off is given here; in the data, active = GI50 up to about 1.1 µM and inactive = higher. Where a SMILES comes first, the peptide text is derived from it. [ ]: non-standard residue; d: D form. The star is where a group is joined. ξ: configuration not given here. ξF = NC(Cc1ccccc1)C(=O)O; Cbz = O=C(OCc1ccccc1)*; Aib = CC(C)(N)C(=O)O; NHNH2 = NN*

Nc1nc(N)c2c3c(cnc2n1)CC(c1ccccc1)CC3 (centres undefined)
14.4 µM (inactive)
Cc1nnc2n1N=C(c1ccc(-c3ccc([N+](=O)[O-])cc3)o1)CS2
> 100 µM (inactive)
O=c1[nH]nc(Cc2ccccc2)n1/N=C\CC/C=N\n1c(Cc2ccccc2)n[nH]c1=O
61.1 µM (inactive)
CC(C)=CCN1c2ccccc2NC(=O)CC1C (centres undefined)
> 100 µM (inactive)
Cc1ccc(NC(=O)CC(=O)n2nc(-c3ccccc3)c(/N=N/c3ccccc3C(=O)O)c2-c2ccccc2)cc1
> 100 µM (inactive)

For the 4 molecules below, give their GI50 values.
1. O=C(Cc1nc2ncccc2[nH]c1=O)c1c[nH]c2ccccc12
2. Cc1ccc(/N=N/c2c(O)ccc3cc(S(=O)(=O)O)ccc23)c(C)c1
3. Oc1[nH]c(Nc2ccc(Cl)cc2)nc2ncnc1-2
4. Nc1ccc(-c2nc3ccc(F)cc3s2)cc1

Result:
1. 16.6 µM (inactive)
2. > 100 µM (inactive)
3. 90.8 µM (inactive)
4. 30.8 µM (inactive)

For the 2 molecules below, give their GI50 values.
1. Cc1nc2n(c1/C=C1/C(=O)Nc3ccccc31)CCS2
2. CS(=O)(=O)c1ccc2nc(-c3ccc(O)cc3)sc2c1

Result:
["34.5 µM (inactive)", "13.9 µM (inactive)"]

For the 7 molecules below, give their GI50 values.
1. CNC(=S)/C(C#N)=C(\N)N1CCCC1
2. CCOc1ccccc1/C=C(/C#N)C(N)=O
3. CC(C)(NC(=O)OCc1ccccc1)C(=O)NC(Cc1ccccc1)C(=O)NN (centres undefined) (Cbz-[Aib]-[ξF]-NHNH2)
4. CCCCCc1cc(CCCC)sc1-c1ccco1
5. O=Cc1c(-c2ccccc2)nc2ccccc2c1O
6. COC(=O)c1cc(=O)n(-c2ccc3nn(C)nc3c2)cc1C(=O)OC
7. CCC1(C)NC(c2cnccn2)=NN1c1ccc(Cl)cc1 (centres undefined)

Result:
["> 100 µM (inactive)", "> 100 µM (inactive)", "> 100 µM (inactive)", "> 100 µM (inactive)", "50.8 µM (inactive)", "> 100 µM (inactive)", "> 100 µM (inactive)"]

For the 3 molecules below, give their GI50 values.
1. O=c1c(Br)c(-c2ccccc2)[s+]([O-])c2ccccc12 (centres undefined)
2. COC(=O)C(CCc1ccccc1I)C1=CCC2(CC1)OCCO2 (centres undefined)
3. CN(C)CC(O)c1ccc(Cl)c2ccccc12 (centres undefined)

Result:
["1.68 µM (inactive)", "18.7 µM (inactive)", "33.2 µM (inactive)"]
